assay: Cmax in Sprague-Dawley rat plasma at 10 mg/kg, po administered via gavage by LC-MS/MS analysis; assay type: ADME, organism-based; parameters: dose 10 mg/kg, route po
readout.name: Cmax
Kindly format the answer as number then unit.

Data request: // Input: C[C@H]1C[C@@H](N2C(=N)N[C@](C)(c3cccc(-c4ccc(OC(F)(F)F)nc4)c3Cl)CC2=O)CCS1(=O)=O . Output its Cmax only.
Data returned: 423 nM

###

tested on: Cathepsin D versus Plasmepsin X; experiment: Selectivity ratio of IC50 for human Cathepsin D to IC50 for Plasmodium falciparum Plasmepsin X; type: toxicity; conditions: read-out: Ratio IC50
readout.name: selectivity ratio
Just the number, please, no unit attached.

Data request: // Input: C[C@H]1C[C@@H](N2C(=N)N[C@](C)(c3cccc(-c4cccc(Cl)c4)c3Cl)CC2=O)CCO1 . Output its selectivity ratio only.
Data returned: 1.3

Data request: // Input: C[C@@H]1C[C@H](N2C(=N)N[C@](C)(c3cccc(-c4cccc(Cl)c4)c3Cl)CC2=O)CC[C@@H]1O . Output its selectivity ratio only.
Data returned: 4.7

Data request: // Input: C[C@H]1C[C@@H](N2C(=N)N[C@](C)(c3cccc(-c4ccc5ncn(CC(F)(F)F)c5c4)c3Cl)CC2=O)CCO1 . Output its selectivity ratio only.
Data returned: 0.3

Data request: // Input: C[C@H]1C[C@@H](N2C(=N)N[C@](C)(c3cccc(-c4ccc(F)cc4F)c3Cl)CC2=O)CCS1(=O)=O . Output its selectivity ratio only.
Data returned: 36.5

Data request: // Input: C[C@H]1C[C@@H](N2C(=N)N[C@](C)(c3cccc(-c4ccc(Cl)cc4Cl)c3Cl)CC2=O)CCO1 . Output its selectivity ratio only.
Data returned: 154

Data request: // Input: C[C@H]1C[C@@H](N2C(=N)N[C@](C)(c3cccc(-c4ccc(OC(F)(F)F)nc4)c3Cl)CC2=O)CCS1(=O)=O . Output its selectivity ratio only.
Data returned: 140

Data request: // Input: C[C@H]1C[C@@H](N2C(=N)N[C@](C)(c3cccc(-c4cncc(Cl)c4)c3Cl)CC2=O)CCO1 . Output its selectivity ratio only.
Data returned: 3.5

Data request: // Input: C[C@@]1(c2cccc(-c3cccc(Cl)c3)c2Cl)CC(=O)N([C@H]2CCOC[C@@H]2O)C(=N)N1 . Output its selectivity ratio only.
Data returned: 3.9

Data request: // Input: CN(C)[C@H]1C[C@@H](N2C(=N)N[C@](C)(c3cccc(-c4ccc(F)cc4F)c3Cl)CC2=O)C1 . Output its selectivity ratio only.
Data returned: 12.5

Data request: // Input: C[C@H]1C[C@@H](N2C(=N)N[C@](C)(c3cccc(-c4ccccc4Cl)c3Cl)CC2=O)CCO1 . Output its selectivity ratio only.
Data returned: 204

Data request: // Input: C[C@H]1C[C@@H](N2C(=N)N[C@](C)(c3cccc(-c4cnn5cccnc45)c3Cl)CC2=O)CCO1 . Output its selectivity ratio only.
Data returned: 59

Data request: // Input: C[C@H]1C[C@@H](N2C(=N)N[C@](C)(c3cccc(-c4ccc(F)cc4F)c3Cl)CC2=O)CCN1C . Output its selectivity ratio only.
Data returned: 14.5

Data request: // Input: C[C@H]1C[C@@H](N2C(=N)N[C@](C)(c3cccc(-c4ccc(C5CC5)nc4)c3Cl)CC2=O)CCS1(=O)=O . Output its selectivity ratio only.
Data returned: 206

Data request: // Input: C[C@H]1C[C@@H](N2C(=N)N[C@](C)(c3cccc(-c4ccc(OC(F)F)nc4)c3Cl)CC2=O)CCS1(=O)=O . Output its selectivity ratio only.
Data returned: 53.9

Data request: // Input: C[C@H]1C[C@@H](N2C(=N)N[C@](C)(c3cccc(-c4ccc(F)cc4F)c3Cl)CC2=O)CCO1 . Output its selectivity ratio only.
Data returned: 71

Data request: // Input: C[C@@]1(c2cccc(-c3ccc(F)cc3F)c2Cl)CC(=O)N([C@H]2CCC(F)(F)[C@@H](O)C2)C(=N)N1 . Output its selectivity ratio only.
Data returned: 17

Data request: // Input: C[C@H]1C[C@@H](N2C(=N)N[C@](C)(c3cccc(NC(=O)c4cccc(C#N)c4)c3Cl)CC2=O)CCO1 . Output its selectivity ratio only.
Data returned: 555

Data request: // Input: C[C@H]1C[C@@H](N2C(=N)N[C@](C)(c3cccc(-c4ccc(OC(F)(F)F)cc4Cl)c3Cl)CC2=O)CCO1 . Output its selectivity ratio only.
Data returned: 176

###

experiment: Tmax in Sprague-Dawley rat plasma at 10 mg/kg, po administered via gavage by LC-MS/MS analysis; type: ADME, organism-based
readout.name: Tmax (h)
Give just the numeric value; h need not be written.

Data request: // Input: C[C@H]1C[C@@H](N2C(=N)N[C@](C)(c3cccc(-c4ccc(OC(F)(F)F)nc4)c3Cl)CC2=O)CCS1(=O)=O . Output its Tmax only.
Data returned: 4

###

experiment: Lipophilicity, log D of the compound in octanol/phosphate buffer at pH 7.4 incubated for 90 mins by shake flask method based LC-MS analysis; format: physicochemical; conditions: octanol/phosphate buffer, pH 7.4
Cut-off 2 on logD at 1.5 h: below means Y, at or above means N.

Data request: Confirm or reject: logD at 1.5 h of C[C@H]1C[C@@H](N2C(=N)N[C@](C)(c3cccc(-c4ccccc4Cl)c3Cl)CC2=O)CCO1 lies strictly below 2
Data returned: N

Data request: Confirm or reject: logD at 1.5 h of C[C@H]1C[C@@H](N2C(=N)N[C@](C)(c3cccc(-c4ccc(OC(F)(F)F)nc4)c3Cl)CC2=O)CCS1(=O)=O lies strictly below 2
Data returned: N

Data request: Confirm or reject: logD at 1.5 h of C[C@H]1C[C@@H](N2C(=N)N[C@](C)(c3cccc(-c4ccc(F)cc4F)c3Cl)CC2=O)CCO1 lies strictly below 2
Data returned: N

Data request: Confirm or reject: logD at 1.5 h of C[C@H]1C[C@@H](N2C(=N)N[C@](C)(c3cccc(NC(=O)c4cccc(C#N)c4)c3Cl)CC2=O)CCO1 lies strictly below 2
Data returned: Y

Data request: Confirm or reject: logD at 1.5 h of C[C@@H]1C[C@H](N2C(=N)N[C@](C)(c3cccc(-c4cccc(Cl)c4)c3Cl)CC2=O)CC[C@@H]1O lies strictly below 2
Data returned: N

Data request: Confirm or reject: logD at 1.5 h of C[C@H]1C[C@@H](N2C(=N)N[C@](C)(c3cccc(-c4cncc(Cl)c4)c3Cl)CC2=O)CCO1 lies strictly below 2
Data returned: N

Data request: Confirm or reject: logD at 1.5 h of C[C@H]1C[C@@H](N2C(=N)N[C@](C)(c3cccc(-c4ccc(Cl)cc4Cl)c3Cl)CC2=O)CCO1 lies strictly below 2
Data returned: N

Data request: Confirm or reject: logD at 1.5 h of C[C@H]1C[C@@H](N2C(=N)N[C@](C)(c3cccc(-c4ccc(OC(F)F)nc4)c3Cl)CC2=O)CCS1(=O)=O lies strictly below 2
Data returned: N

Data request: Confirm or reject: logD at 1.5 h of C[C@H]1C[C@@H](N2C(=N)N[C@](C)(c3cccc(-c4cnn5cccnc45)c3Cl)CC2=O)CCO1 lies strictly below 2
Data returned: Y

Data request: Confirm or reject: logD at 1.5 h of C[C@H]1C[C@@H](N2C(=N)N[C@](C)(c3cccc(-c4ccc(F)cc4F)c3Cl)CC2=O)CCN1C lies strictly below 2
Data returned: Y

Data request: Confirm or reject: logD at 1.5 h of C[C@H]1C[C@@H](N2C(=N)N[C@](C)(c3cccc(-c4cccc(Cl)c4)c3Cl)CC2=O)CCO1 lies strictly below 2
Data returned: N

Data request: Confirm or reject: logD at 1.5 h of C[C@@]1(c2cccc(-c3ccc(F)cc3F)c2Cl)CC(=O)N([C@H]2CCC(F)(F)[C@@H](O)C2)C(=N)N1 lies strictly below 2
Data returned: N

Data request: Confirm or reject: logD at 1.5 h of CN(C)[C@H]1C[C@@H](N2C(=N)N[C@](C)(c3cccc(-c4ccc(F)cc4F)c3Cl)CC2=O)C1 lies strictly below 2
Data returned: Y

Data request: Confirm or reject: logD at 1.5 h of C[C@@]1(c2cccc(-c3cccc(Cl)c3)c2Cl)CC(=O)N([C@H]2CCOC[C@@H]2O)C(=N)N1 lies strictly below 2
Data returned: N

Data request: Confirm or reject: logD at 1.5 h of C[C@H]1C[C@@H](N2C(=N)N[C@](C)(c3cccc(-c4ccc(F)cc4F)c3Cl)CC2=O)CCS1(=O)=O lies strictly below 2
Data returned: N

###

assay: Solubility of compound in FeSSIF at pH 5.8 incubated for 1 hr by LC/MS analysis; format: physicochemical
readout.name: solubility at 1 h

Data request: // Input: C[C@H]1C[C@@H](N2C(=N)N[C@](C)(c3cccc(-c4cnn5cccnc45)c3Cl)CC2=O)CCO1 . Output its solubility at 1 h only.
Data returned: > 1500 µM

Data request: // Input: CN(C)[C@H]1C[C@@H](N2C(=N)N[C@](C)(c3cccc(-c4ccc(F)cc4F)c3Cl)CC2=O)C1 . Output its solubility at 1 h only.
Data returned: > 1500 µM

Data request: // Input: C[C@@H]1C[C@H](N2C(=N)N[C@](C)(c3cccc(-c4cccc(Cl)c4)c3Cl)CC2=O)CC[C@@H]1O . Output its solubility at 1 h only.
Data returned: > 1500 µM

Data credit: ChEMBL document CHEMBL5370686
